- SYSTEM UNDER TEST: T1, Cynomolgus CD3εδ Fc heterodimer (Cy CD3ε Fc + CD3δ Fc-HIS) (cynomolgus, UniProt Q95LI5 22-117; Q95LI8 22-100)
- T1 construct: range 22-117;range 22-100; Made in HEK 293 cells with a heterologous signal peptide; also called Cy CD3εδ-Fc; cyno CD3εδ Fc; not shown: Fc; Fc followed by HIS tag
- T1 sequence (Q95LI5 22-117, stated change not applied, form in doubt, chain 1 of 2): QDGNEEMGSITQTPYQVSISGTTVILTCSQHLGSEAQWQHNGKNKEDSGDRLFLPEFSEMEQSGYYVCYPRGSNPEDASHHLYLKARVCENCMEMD
- T1 sequence (Q95LI8 22-100, stated change not applied, form in doubt, chain 2 of 2): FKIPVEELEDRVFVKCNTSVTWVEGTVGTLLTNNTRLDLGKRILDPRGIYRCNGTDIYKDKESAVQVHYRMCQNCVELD
- ASSAY DETAILS: SPR (Biacore), Fab over immobilized CD3εδ Fc, pH 7.4
ATTRIBUTE MEASURED: Kd (nM)
Field: numeric (nM). Do not append units.

[[record]]
binder = "Antibody No. A004 (ADI-26920) Fab (Fab, V domains shown, Fab by papain digestion of the IgG1) VH: QVQLVQSGAEVKKPGASVKVSCKASGFNIKDYYMHWVRQAPGQRLEWMGWIDLENANTIYDAKFQGRVTITRDTSASTAYMELSSLRSEDTAVYYCGRDAYGRYFYDVWGQGTLVTVSS VL: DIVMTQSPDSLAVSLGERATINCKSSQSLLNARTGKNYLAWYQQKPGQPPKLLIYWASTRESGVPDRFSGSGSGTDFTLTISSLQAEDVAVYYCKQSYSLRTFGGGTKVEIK"
meas_value = 9

[[record]]
binder = "Antibody No. V007 (ADI-67450) Fab (Fab, V domains shown, Fab by papain digestion of the IgG1) VH: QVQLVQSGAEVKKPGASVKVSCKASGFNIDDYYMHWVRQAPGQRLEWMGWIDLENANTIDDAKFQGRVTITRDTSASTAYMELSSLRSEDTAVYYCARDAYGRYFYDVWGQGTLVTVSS VL: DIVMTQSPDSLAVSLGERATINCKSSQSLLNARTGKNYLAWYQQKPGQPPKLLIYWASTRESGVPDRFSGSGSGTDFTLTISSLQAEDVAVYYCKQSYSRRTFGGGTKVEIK"
meas_value = 2.7


-- ask Entry under review: Antibody No. V013 (ADI-70330) Fab (Fab, V domains shown, Fab by papain digestion of the IgG1) VH: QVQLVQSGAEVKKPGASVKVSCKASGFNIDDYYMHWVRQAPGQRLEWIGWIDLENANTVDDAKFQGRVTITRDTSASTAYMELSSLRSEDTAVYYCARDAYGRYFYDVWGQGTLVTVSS VL: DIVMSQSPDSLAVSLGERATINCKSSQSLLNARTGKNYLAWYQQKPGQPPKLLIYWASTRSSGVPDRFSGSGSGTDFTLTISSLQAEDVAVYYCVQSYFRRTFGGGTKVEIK . Reported Kd?
-- reply 0.22
